B1: EHMT1 (parent)
chain: EEINKNISDFGRQQLLPPFPSLHQ

Variants of: B1
test-details: protein stability index of a GFP-peptide fusion (GPS, HEK-293T) (PSI 1-6); higher = more stable;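 further: lentivirally expressed fusions sorted by FACS into six bins by GFP to DsRed ratio, PSI derived from sequencing read proportions per bin multiplied by bin number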
condition-notes: c terminus: a fixed tail appended
assay-readout: protein stability index
Lab note: write the figure by itself, no unit.

Reference set, count: 5
EEINKNISDFGRQQLLPPFPSLHV : 2.65
EEINKNISDFGRQHLLPPFPSLHQ : 2.29
EEINKNISDFGRQQLWPPFPSLHQ : 2.65
EEINKNISDFGRQQLLPPRPSLHQ : 4.1
EEINKNISDFGRQQQLPPFPSLHQ : 3.3

Dear colleague, I am looking for the recorded protein stability index of the following variant: `EEINKNISDFGRQQLLPPFPHLHQ`
3.58

And for `EEINKNISDFRRQQLLPPFPSLHQ` ?
2.48

And for `EEINYNISDFGRQQLLPPFPSLHQ` ?
2.13
